Literature compilation of IC50 measurements on UniProt:Q06187.

{"structure": "Cc1cnc(-c2ccc(-c3ccc(NC(=O)Nc4c(F)cccc4Cl)cc3F)c3c2C(=O)NC3)[nH]1", "observed.measurement": "0.9 nM"}
{"structure": "COc1ccc(F)c(C(=O)c2c[nH]c3ncc(-c4cccc(/C=C/C(=O)O)c4)cc23)c1", "observed.measurement": "≤ 10000 nM"}
{"structure": "Cc1cc(-c2ccnc(Nc3cnn(C)c3)n2)ccc1CNC(=O)c1nc2c(s1)CCC2", "observed.measurement": "< 10 nM"}
{"structure": "C#CC(=O)N1CCC[C@H](c2c(F)cc(C(N)=O)c3[nH]c(C)c(Cl)c23)C1", "observed.measurement": "< 10 nM"}

API: value(readout=IC50, system=UniProt:Q06187) for record C=CC(=O)N1CC[C@]2(C1)C[C@H](n1c(NC(=O)c3ccc(-c4c[nH]nc4C4CC4)s3)nc3ccccc31)C2
0.84 nM

API: value(readout=IC50, system=UniProt:Q06187) for record C=CC(=O)N1CCC=C(c2c(F)cc(C(N)=O)c3[nH]c4c(c23)CC2(CC4)CC2)C1
< 10 nM

API: value(readout=IC50, system=UniProt:Q06187) for record C=CC(=O)Nc1cccc(Oc2c(Cl)cnc3[nH]c(-c4ccc(C(=O)N5CCOCC5)cc4)nc23)c1
≤ 50 nM

API: value(readout=IC50, system=UniProt:Q06187) for record Cc1cc(-c2cc(Nc3cc4n(n3)CCN(C)C4=O)ncn2)ccc1CNC(=O)c1cnc(C(C)(C)C)s1
< 10 nM

API: value(readout=IC50, system=UniProt:Q06187) for record C/C=C/C(=O)N1CCC[C@@H]1Cn1nc(-c2ccc(Oc3cc(F)cc(OCc4cnc(C)nc4)c3)cc2)c2c(N)ncnc21
129 nM

API: value(readout=IC50, system=UniProt:Q06187) for record C=CC(=O)N1CC[C@]2(C1)C[C@H](n1c(NC(=O)c3ccc(C(C)(F)F)s3)nc3ccccc31)C2
2.11 nM

API: value(readout=IC50, system=UniProt:Q06187) for record CN(C)C/C=C/C(=O)Nc1cccc2c1OCc1[nH]c(=O)c3c(N)n(-c4ccc(Oc5ccccc5)cc4)nc3c1-2
< 10 nM

API: value(readout=IC50, system=UniProt:Q06187) for record CCN(CC)CC(=O)N1CCC(c2c(CCCN3CCCC3)c(-c3ccc(Oc4cccc(Cl)c4)c(OC)c3)c3c(N)ncnn23)CC1
22 nM

API: value(readout=IC50, system=UniProt:Q06187) for record O=C(NCc1ccc(-c2ncnc3[nH]ccc23)cc1)C1Cc2ccccc2C1
> 10000 nM

API: value(readout=IC50, system=UniProt:Q06187) for record CCCS(=O)(=O)Nc1cccc(C(=O)c2c[nH]c3ncc(-c4cnn(C)c4)cc23)c1
≤ 10000 nM

API: value(readout=IC50, system=UniProt:Q06187) for record Cc1cc(-c2ncnc3[nH]c(C4=CCN(C(=O)N(C)C)CC4)cc23)ccc1CNC(=O)c1cnc(C(C)(C)C)s1
< 10 nM

====

Literature compilation of pIC50 measurements on UniProt Q06187.
pIC50: −log10 of the molar value.

Would you please look over these solved cases?
{"structure": "Cc1cc(-c2ncnc3cc[nH]c23)ccc1CNC(=O)c1cc2c(s1)CCCC2", "observed.measurement": "> 8.00"}
{"structure": "C=CC(=O)N1CC(CNc2nc(Nc3cnn(C)c3)nc3sccc23)C1", "observed.measurement": "7.00 to 7.30"}
{"structure": "Cc1cc(-c2nc(C(=O)Nc3cn4cc(CCS(C)(=O)=O)nc4cc3N3CCCCC3)co2)ccn1", "observed.measurement": 8.42}
{"structure": "CC[C@H](C)[C@@H](Nc1cc(F)cc(Cl)c1)C(=O)N[C@@H]1CCCN(c2ncnc3[nH]ncc23)C1", "observed.measurement": "> 7.00"}

For the molecule C=CC(=O)Nc1cccc(-c2cc(CN3CCOCC3)cc(NC(=O)CC)n2)c1 , what pIC50 is on record?
< 6.40

For the molecule Cn1cc(-c2cn3nccc3c(N3CCC(CNC(=O)c4cn(C(C)(C)C)nn4)CC3)n2)cn1 , what pIC50 is on record?
8.00 to 9.00

For the molecule Cn1cc(-c2cc(-c3ccc(CNC(=O)c4ccn(C(C)(C)C)n4)c(F)c3)c3ccnn3c2)cn1 , what pIC50 is on record?
8.00 to 9.00

For the molecule C=CC(=O)Nc1cccc(-n2c(=O)n(-c3ccc(Oc4ccccc4)cc3)c3c(N)ncnc32)c1 , what pIC50 is on record?
> 7.00

====

Literature compilation of pIC50 measurements on BTK (Homo sapiens, UniProt Q06187).
Sequence (Q06187 whole entry): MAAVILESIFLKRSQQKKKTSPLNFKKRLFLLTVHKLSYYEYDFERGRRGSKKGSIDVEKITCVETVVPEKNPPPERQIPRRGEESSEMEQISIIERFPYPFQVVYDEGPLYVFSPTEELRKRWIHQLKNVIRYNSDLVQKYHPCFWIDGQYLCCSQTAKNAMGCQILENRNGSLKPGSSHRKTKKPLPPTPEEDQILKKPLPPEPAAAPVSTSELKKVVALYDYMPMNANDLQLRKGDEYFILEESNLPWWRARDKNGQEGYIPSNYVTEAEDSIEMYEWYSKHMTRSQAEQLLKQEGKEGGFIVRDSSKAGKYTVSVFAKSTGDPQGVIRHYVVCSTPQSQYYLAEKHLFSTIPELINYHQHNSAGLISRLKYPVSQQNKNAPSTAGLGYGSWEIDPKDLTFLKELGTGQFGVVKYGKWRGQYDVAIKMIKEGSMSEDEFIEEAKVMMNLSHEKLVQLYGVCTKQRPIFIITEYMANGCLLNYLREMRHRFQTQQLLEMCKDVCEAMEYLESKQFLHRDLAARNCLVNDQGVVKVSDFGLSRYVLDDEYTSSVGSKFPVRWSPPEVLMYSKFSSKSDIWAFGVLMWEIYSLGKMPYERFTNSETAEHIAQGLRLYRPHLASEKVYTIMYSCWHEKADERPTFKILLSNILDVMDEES
pIC50: −log10 of the molar value.

{"compound": "Nc1c(C(=O)c2cc3ccccc3[nH]2)cnn1-c1ccc(Oc2ccccn2)cc1", "pIC50": 6.30}
{"compound": "O=C(NC1CCCc2cc(-c3ncnc4[nH]ncc34)ccc21)c1ccc(Cl)c(F)c1 (stereo not shown)", "pIC50": "6.00 to 7.00"}
{"compound": "CN(C)C/C=C/C(=O)N1CCCC(n2cc(-c3ccc(Oc4ccc(F)cc4)cc3)c3c(N)n[nH]c(=O)c32)C1 (stereo not shown)", "pIC50": "6.00 to 8.00"}

Turning to the following compound.
API: value(readout=pIC50, system=BTK (Homo sapiens, UniProt Q06187)) for record O=C(CNc1cc(Cl)cc(Cl)c1)N1CCC[C@@H](Nc2c(-c3ccc(C(=O)N4CCC(O)CC4)cc3)cnc3[nH]ccc23)C1
> 7.00

====

Literature compilation of IC50 measurements on BTK (Homo sapiens, UniProt Q06187).
observation.type: IC50 (nM)

1. CC#CC(=O)N1C2CC[C@@H](C2)C1c1nc(-c2ccc(C(=O)Nc3cc(C)ccn3)cc2)c2c(N)nccn12 (stereo partly shown)
2. Cc1cc(C)cc(-c2nc3ccc(-c4cccc5c(N)c(C(N)=O)nnc45)cc3[nH]2)c1
3. C=CC(=O)N1CCC[C@@H](n2nc(-c3ccc(C(=O)Nc4ccccc4)cc3)c3c(N)nccc32)C1
Order them by IC50, ascending: the compounds above. Answer by listing the labels in the requested order.
3, 2, 1

====

Literature compilation of IC50 measurements on BTK (Homo sapiens, UniProt Q06187).

Would you please look over these solved cases?
{"compound": "Cn1cc(-c2cn3nccc3c(-c3ccc(CNC(=O)c4cnn(C(C)(C)C)n4)cc3F)n2)cn1", "experimental.target": "BTK (Homo sapiens, UniProt Q06187)", "IC50": "1 to 10 nM"}
{"compound": "C=C(C)C(=O)N1C[C@@H]2C[C@@H]1[C@@H](n1nc(-c3ccc(C(=O)Nc4ccccn4)cc3)c3c(N)ncnc31)C2", "experimental.target": "BTK (Homo sapiens, UniProt Q06187)", "IC50": "> 100 nM"}
{"compound": "C=CC(=O)N1CCC(c2nc(-c3ccc(Oc4ncccc4F)c(OC)c3)n3c(N)nccc23)C1 (stereo not shown)", "experimental.target": "BTK (Homo sapiens, UniProt Q06187)", "IC50": "< 100 nM"}

Turning to the following compound.
For the compound C=CC(=O)N1CC(n2nc(-c3ccc(Cl)cc3)c3c(N)ncnc32)C1 , what IC50 is on record?
< 100 nM

====

Literature compilation of pIC50 measurements on BTK (Homo sapiens).
pIC50: −log10 of the molar value.

{"compound": "C[C@H](O)[C@@H](Nc1cc(F)cc(Cl)c1)C(=O)N[C@@H]1CCCN(c2ncnc3[nH]ncc23)C1", "pIC50": "> 7.00"}
{"compound": "CC#CC(=O)N1CCCC(c2nc(-c3ccc(C(=O)Nc4ccccn4)cc3)n3c(N)nccc23)C1 (centres unmarked)", "pIC50": "> 7.00"}
{"compound": "CC#CC(=O)Nc1cccc(Oc2ncnc3[nH]c(-c4ccc(N5CCN(C)CC5)cc4)cc23)c1", "pIC50": "> 7.00"}
{"compound": "C=CC(=O)NCc1cccc(-c2cc3nccc(-c4ccccc4)c3o2)c1", "pIC50": "5.52 to 6.52"}
{"compound": "Cc1cc(-c2nc(N3CCOCC3)cn3nccc23)ccc1CNC(=O)c1noc(C2(C)CC2)n1", "pIC50": "8.00 to 9.00"}
{"compound": "CN(C/C=C/C(=O)N1CC[C@@H](n2c(Cl)c(-c3ccc(Oc4ccccc4)cc3)c3c(N)ncnc32)C1)[C@@H]1CCOC1", "pIC50": "> 7.00"}
{"compound": "Oc1cc(O)cc(Cc2c[nH]c3ncc(-c4ccsc4)cc23)c1", "pIC50": "≥ 5.00"}

Turning to the following compound.
For the compound O=C(CNc1cc(Cl)cc(Cl)c1)N1CC[C@@H](Nc2ncnc3[nH]ncc23)C1 , what pIC50 is on record?
< 5.00
